Reference source: the supplement of paper PMC10567573

B1: ZC3H15 (parent)
chain: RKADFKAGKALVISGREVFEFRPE

Variants of: B1
measurementNotes: protein stability index of a GFP-peptide fusion (GPS, HEK-293T) (PSI 1-6); higher = more stable;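 further: lentivirally expressed fusions sorted by FACS into six bins by GFP to DsRed ratio, PSI derived from sequencing read proportions per bin multiplied by bin number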
conditionsUsed: c terminus: a fixed tail appended
# cutoff 3 applies to protein stability index; >= gives Fulfilled, < gives Not fulfilled

Given the entry A7F , answer whether its protein stability index meets or surpasses 3.
Not fulfilled

Given the entry A7D , answer whether its protein stability index meets or surpasses 3.
Fulfilled

Given the entry K9Q , answer whether its protein stability index meets or surpasses 3.
Not fulfilled

Given the entry E17P , answer whether its protein stability index meets or surpasses 3.
Not fulfilled

Given the entry K2D , answer whether its protein stability index meets or surpasses 3.
Fulfilled

Given the entry E24M , answer whether its protein stability index meets or surpasses 3.
Not fulfilled

Given the entry E24G , answer whether its protein stability index meets or surpasses 3.
Not fulfilled

Given the entry G15P , answer whether its protein stability index meets or surpasses 3.
Fulfilled

Given the entry I13G , answer whether its protein stability index meets or surpasses 3.
Fulfilled

Given the entry S14D , answer whether its protein stability index meets or surpasses 3.
Fulfilled

Given the entry E24K , answer whether its protein stability index meets or surpasses 3.
Not fulfilled

Given the entry K6M , answer whether its protein stability index meets or surpasses 3.
Not fulfilled

Given the entry E24I , answer whether its protein stability index meets or surpasses 3.
Not fulfilled

Given the entry F19S , answer whether its protein stability index meets or surpasses 3.
Fulfilled

Given the entry D4Y , answer whether its protein stability index meets or surpasses 3.
Not fulfilled

Given the entry P23S , answer whether its protein stability index meets or surpasses 3.
Fulfilled

Given the entry K9W , answer whether its protein stability index meets or surpasses 3.
Not fulfilled

Given the entry R16V , answer whether its protein stability index meets or surpasses 3.
Not fulfilled

Given the entry R16E , answer whether its protein stability index meets or surpasses 3.
Fulfilled

Given the entry F5M , answer whether its protein stability index meets or surpasses 3.
Not fulfilled

Given the entry F5D , answer whether its protein stability index meets or surpasses 3.
Fulfilled

Given the entry V12C , answer whether its protein stability index meets or surpasses 3.
Not fulfilled

Given the entry F21G , answer whether its protein stability index meets or surpasses 3.
Fulfilled

Given the entry A7H , answer whether its protein stability index meets or surpasses 3.
Not fulfilled

Given the entry I13H , answer whether its protein stability index meets or surpasses 3.
Fulfilled

Given the entry F21R , answer whether its protein stability index meets or surpasses 3.
Fulfilled

Given the entry G8N , answer whether its protein stability index meets or surpasses 3.
Fulfilled

Given the entry L11M , answer whether its protein stability index meets or surpasses 3.
Not fulfilled

Given the entry E24A , answer whether its protein stability index meets or surpasses 3.
Not fulfilled

Given the entry F5N , answer whether its protein stability index meets or surpasses 3.
Fulfilled

Given the entry E17L , answer whether its protein stability index meets or surpasses 3.
Not fulfilled

Given the entry R1F , answer whether its protein stability index meets or surpasses 3.
Not fulfilled

Given the entry D4T , answer whether its protein stability index meets or surpasses 3.
Not fulfilled

Given the entry K2R , answer whether its protein stability index meets or surpasses 3.
Not fulfilled

Given the entry V12Q , answer whether its protein stability index meets or surpasses 3.
Fulfilled

Given the entry P23G , answer whether its protein stability index meets or surpasses 3.
Fulfilled

Given the entry V18M , answer whether its protein stability index meets or surpasses 3.
Not fulfilled

Given the entry A3N , answer whether its protein stability index meets or surpasses 3.
Fulfilled

Given the entry E20A , answer whether its protein stability index meets or surpasses 3.
Not fulfilled

Given the entry V12S , answer whether its protein stability index meets or surpasses 3.
Fulfilled

Given the entry V18F , answer whether its protein stability index meets or surpasses 3.
Not fulfilled
